Biological target: RANTES/MIP-1α chemokine receptor (CCR1) in THP-1 cell membranes (Homo sapiens, UniProt P32246)
Construct: Membranes were prepared from THP-1 cells (ATCC #TIB202); host or cells: THP-1 cells (membrane preparation)
Assay: Receptor binding assay: 125I-RANTES or 125I-MIP-1α binding to THP-1 cell membranes
Settings: inhibitor concentration required for 50% inhibition of specific binding; 125I-RANTES or 125I-MIP-1α as ligand, THP-1 cell membranes; read-out: IC50
pIC50: −log10 of the molar value.

Molecule: CCOc1ccc2c(c1)C(=CCCN1CCC(O)(c3ccc(Cl)cc3)CC1)c1ccccc1CO2
pIC50: > 6.00
//
Molecule: CC1(C)CN(CCC=C2c3cc(OCCN4CCOCC4)ccc3OCc3ncccc32)CCC1(O)c1ccc(Cl)cc1 (centres unmarked)
pIC50: > 6.00
//
Molecule: CC1CN(CCC=C2c3cc(C(C)(C)O)ccc3OCc3ncccc32)CCC1(F)c1ccc(Cl)cc1 (centres unmarked)
pIC50: > 6.00
//
Molecule: COC(=O)C1(c2ccc(Cl)cc2)CCN(CCC=C2c3cc(C(C)(C)O)ccc3OCc3ncccc32)CC1
pIC50: > 5.00
//
Molecule: Nc1ccc2c(c1)C(=CCCN1CCC(O)(c3ccc(Cl)cc3)CC1)c1ccccc1CO2
pIC50: > 6.00
//
Molecule: CC(=O)C1(c2ccc(Cl)cc2)CCN(CCC=C2c3cc(C(C)(C)O)ccc3OCc3ncccc32)CC1
pIC50: > 6.00
//
Molecule: CC(C)(O)c1ccc2c(c1)C(=CCCN1CC[C@](O)(c3ccc(Cl)cc3)C(C)(C)C1)c1cccnc1CO2
pIC50: > 6.00
//
Molecule: OC1(c2ccc(Cl)cc2)CCN(CCC=C2c3ccccc3CCc3ccccc32)CC1
pIC50: > 6.00
//
Molecule: CC(C)CN(Cc1ccc(Cl)cc1)C1CCN(CCC=C2c3cc(C(C)(C)O)ccc3OCc3ncccc32)C1 (centres unmarked)
pIC50: > 6.00
//
Molecule: COc1ccc2c(c1)C(=CCCN1CCC(O)(c3ccc(C)cc3)CC1)c1cccnc1CO2
pIC50: > 6.00
//
Molecule: CCOC(=O)COCC1(C)CN(CCC=C2c3cc(C(C)(C)O)ccc3OCc3ncccc32)CCC1(O)c1ccc(Cl)cc1 (centres unmarked)
pIC50: > 6.00
//
Molecule: NCc1ccc2c(c1)C(=CCCN1CCC(O)(c3ccc(Cl)cc3)CC1)c1ccccc1CO2
pIC50: > 6.00
//
Molecule: COC(=O)CN(Cc1ccc(Cl)cc1)C1CCN(CCC=C2c3cc(C(C)(C)O)ccc3OCc3ncccc32)C1 (centres unmarked)
pIC50: > 6.00
//
Molecule: CC(C)(O)c1ccc2c(c1)C(=CCCN1CC[C@@](O)(c3ccc(Cl)cc3)C(C)(C)C1)c1cccnc1CO2
pIC50: > 6.00
//
Molecule: CC(C)(O)c1ccc2c(c1)C(=CCCN1CCC(C(=O)O)(c3ccc(Cl)cc3)CC1)c1cccnc1CO2
pIC50: > 5.00
//
Molecule: CCN1C(=O)c2ccccc2C(=CCCN2CCC(O)(c3ccc(Cl)cc3)CC2)c2ccccc21
pIC50: > 6.00
//
Molecule: O=C(O)C1(Oc2ccc3c(c2)C(=CCCN2CCC(O)(c4ccc(Cl)cc4)CC2)c2cccnc2CO3)CCC1
pIC50: > 6.00
//
Molecule: CC(=O)N(Cc1ccc(Cl)cc1)C1CCN(CCC=C2c3cc(C(C)(C)O)ccc3OCc3ncccc32)C1 (centres unmarked)
pIC50: > 5.00
//
Molecule: CC1(C)CN(CCC=C2c3cc(O)ccc3OCc3ncccc32)CCC1(O)c1ccc(Cl)cc1 (centres unmarked)
pIC50: > 6.00
//
Molecule: CCOC(=O)CN1C(=O)c2ccccc2C(=CCCN2CCC(O)(c3ccc(Cl)cc3)CC2)c2ccccc21
pIC50: > 6.00

* * *

Target: RANTES/MIP-1α chemokine receptor (CCR1) in THP-1 cell membranes (Homo sapiens, UniProt P32246)
Construct: Membranes were prepared from THP-1 cells (ATCC #TIB202); host or cells: THP-1 cells (membrane preparation)
Sequence (P32246 1-355): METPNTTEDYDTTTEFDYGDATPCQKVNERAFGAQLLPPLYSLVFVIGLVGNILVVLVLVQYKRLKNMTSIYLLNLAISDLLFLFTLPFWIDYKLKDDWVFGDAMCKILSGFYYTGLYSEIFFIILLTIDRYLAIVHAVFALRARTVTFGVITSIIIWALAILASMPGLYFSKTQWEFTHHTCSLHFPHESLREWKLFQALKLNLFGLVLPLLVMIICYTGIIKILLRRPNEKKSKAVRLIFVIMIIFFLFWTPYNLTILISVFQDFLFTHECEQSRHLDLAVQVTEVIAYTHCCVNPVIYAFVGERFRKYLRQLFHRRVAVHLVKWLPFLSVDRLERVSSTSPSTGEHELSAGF
Assay: Receptor binding assay: 125I-RANTES or 125I-MIP-1α binding to THP-1 cell membranes
Conditions: inhibitor concentration required for 50% inhibition of specific binding; 125I-RANTES or 125I-MIP-1α as ligand, THP-1 cell membranes; read-out: IC50
pIC50: −log10 of the molar value.
Observation type: pIC50

Molecule: CC1(C)CN(CCC=C2c3cc(OCC(N)=O)ccc3OCc3ncccc32)CCC1(O)c1ccc(Cl)cc1 (stereo not shown)
Observation type: pIC50
Result: > 6.00
//
Molecule: CN(C)C(=O)C(C)(C)Oc1ccc2c(c1)C(=CCCN1CCC(O)(c3ccc(Cl)cc3)CC1)c1cccnc1CO2
Observation type: pIC50
Result: > 6.00
//
Molecule: CC(C)(O)c1ccc2c(c1)C(=CCCN1CCC(O)(c3ccccc3Cl)CC1)c1cccnc1CO2
Observation type: pIC50
Result: > 5.00
//
Molecule: COc1ccc2c(c1)C(=CCCN1CCOC(c3ccc(Cl)cc3)OCC1)c1cccnc1CO2
Observation type: pIC50
Result: > 6.00
//
Molecule: CC(C)(O)c1ccc2c(c1)C(=CCCN1CCC(O)(c3ccc(Cl)cc3)CC1)c1ccccc1CO2
Observation type: pIC50
Result: > 6.00
//
Molecule: CCOC(=O)[C@H]1CCCN(NC(=O)c2ccc3c(c2)C(=CCCN2CCC(O)(c4ccc(Cl)cc4)CC2)c2cccnc2CO3)C1
Observation type: pIC50
Result: > 6.00
//
Molecule: COC(=O)CN(Cc1ccc(Cl)cc1)C1CCN(CCC=C2c3cc(C(C)(C)O)ccc3OCc3ncccc32)CC1
Observation type: pIC50
Result: > 5.00

* * *

IC50 values by entry
Target: RANTES/MIP-1α chemokine receptor (CCR1) in THP-1 cell membranes (Homo sapiens, UniProt P32246)
Construct: Membranes were prepared from THP-1 cells (ATCC #TIB202); host or cells: THP-1 cells (membrane preparation)
Test: Receptor binding assay: 125I-RANTES or 125I-MIP-1α binding to THP-1 cell membranes
Conditions: inhibitor concentration required for 50% inhibition of specific binding; 125I-RANTES or 125I-MIP-1α as ligand, THP-1 cell membranes; read-out: IC50

Compound: CCN(Cc1ccc(Cl)cc1)C1CCN(CCC=C2c3cc(C(C)(C)O)ccc3OCc3ncccc32)CC1
IC50: < 1 µM

Compound: CN(C)CCOc1ccc2c(c1)C(=CCCN1CCC(O)(c3ccc(Cl)cc3)CC1)c1cccnc1CO2
IC50: < 1 µM

Compound: COC(=O)c1ccc2c(c1)C(=CCCN1CCC(O)(c3ccc(Cl)cc3)CC1)c1ccccc1CO2
IC50: < 1 µM

Compound: COC(=O)C1(C)CN(CCC=C2c3cc(C(C)(C)O)ccc3OCc3ncccc32)CCC1(O)c1ccc(Cl)cc1 (stereo not shown)
IC50: < 1 µM

Compound: CC(C)(O)c1ccc2c(c1)C(=CCCN1CCC(O)(c3ccc(Cl)c([N+](=O)[O-])c3)CC1)c1cccnc1CO2
IC50: < 10 µM

Compound: COC1(c2ccc(Cl)cc2)CCN(CCC=C2c3cc(C(C)(C)O)ccc3OCc3ncccc32)CC1O (stereo not shown)
IC50: < 1 µM

Compound: O=C(O)CN1C(=O)c2ccccc2C(=CCCN2CCC(O)(c3ccc(Cl)cc3)CC2)c2ccccc21
IC50: < 10 µM

* * *

IC50 values by entry
Molecular target: RANTES/MIP-1α chemokine receptor (CCR1) in THP-1 cell membranes (Homo sapiens)
Construct: Membranes were prepared from THP-1 cells (ATCC #TIB202); host or cells: THP-1 cells (membrane preparation)
Sequence (P32246 1-355): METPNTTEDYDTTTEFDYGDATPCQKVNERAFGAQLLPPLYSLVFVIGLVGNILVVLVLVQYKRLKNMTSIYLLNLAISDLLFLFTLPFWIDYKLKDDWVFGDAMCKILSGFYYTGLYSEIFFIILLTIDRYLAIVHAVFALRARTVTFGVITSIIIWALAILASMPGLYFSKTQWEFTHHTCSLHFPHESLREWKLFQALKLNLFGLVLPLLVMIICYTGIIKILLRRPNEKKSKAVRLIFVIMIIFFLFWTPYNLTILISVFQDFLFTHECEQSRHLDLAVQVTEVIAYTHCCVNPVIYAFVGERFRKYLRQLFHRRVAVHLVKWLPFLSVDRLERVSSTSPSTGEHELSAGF
Assay: Receptor binding assay: 125I-RANTES or 125I-MIP-1α binding to THP-1 cell membranes
Settings: inhibitor concentration required for 50% inhibition of specific binding; 125I-RANTES or 125I-MIP-1α as ligand, THP-1 cell membranes; read-out: IC50

Molecule: CC(C)(C)CC(C)(C)NC(=O)N(Cc1ccc(Cl)cc1)C1CCN(CCC=C2c3cc(C(C)(C)O)ccc3OCc3ncccc32)C1 (stereo not drawn)
Assayed system: RANTES/MIP-1α chemokine receptor (CCR1) in THP-1 cell membranes (Homo sapiens)
IC50: < 10000 nM

Molecule: CC(C)(O)c1ccc2c(c1)C(=CCCN1CCC(N(CC(=O)O)Cc3ccc(Cl)cc3)CC1)c1cccnc1CO2
Assayed system: RANTES/MIP-1α chemokine receptor (CCR1) in THP-1 cell membranes (Homo sapiens)
IC50: < 10000 nM

Molecule: O=C1c2ccccc2C(=CCCN2CCC(O)(c3ccc(Cl)cc3)CC2)c2ccccc2N1CCCO
Assayed system: RANTES/MIP-1α chemokine receptor (CCR1) in THP-1 cell membranes (Homo sapiens)
IC50: < 1000 nM

Molecule: O=C(O)c1ccc2c(c1)C(=CCCN1CCC(O)(c3ccc(Cl)cc3)CC1)c1ccccc1CO2
Assayed system: RANTES/MIP-1α chemokine receptor (CCR1) in THP-1 cell membranes (Homo sapiens)
IC50: < 10000 nM

Molecule: COCCOc1ccc2c(c1)C(=CCCN1CCC(O)(c3ccc(Cl)cc3)C(C)(C)C1)c1cccnc1CO2 (stereo not drawn)
Assayed system: RANTES/MIP-1α chemokine receptor (CCR1) in THP-1 cell membranes (Homo sapiens)
IC50: < 1000 nM

Molecule: CC(C)(O)c1ccc2c(c1)C(=CCCN1CCC3(CC1)OC(=O)c1cc(Cl)ccc13)c1cccnc1CO2
Assayed system: RANTES/MIP-1α chemokine receptor (CCR1) in THP-1 cell membranes (Homo sapiens)
IC50: < 1000 nM

Molecule: COC(=O)c1cc(Cl)ccc1N1CCN(CCC=C2c3cc(C(C)(C)O)ccc3OCc3ncccc32)CC1
Assayed system: RANTES/MIP-1α chemokine receptor (CCR1) in THP-1 cell membranes (Homo sapiens)
IC50: < 10000 nM

Molecule: CC(C)(O)c1ccc2c(c1)C(=CCCN1CCC(N=[N+]=[N-])(c3ccc(Cl)cc3)C(O)C1)c1cccnc1CO2 (stereo not drawn)
Assayed system: RANTES/MIP-1α chemokine receptor (CCR1) in THP-1 cell membranes (Homo sapiens)
IC50: < 10000 nM

Molecule: CC(C)(O)c1ccc2c(c1)C(=CCCN1CC[C@@](O)(c3ccc(Cl)cc3)[C@H](C#N)C1)c1cccnc1CO2 (relative stereo)
Assayed system: RANTES/MIP-1α chemokine receptor (CCR1) in THP-1 cell membranes (Homo sapiens)
IC50: < 1000 nM

Molecule: CC(C)(O)c1ccc2c(c1)C(=CCCN1CCC(O)(c3ccc(Cl)cc3)C(O)C1)c1cccnc1CO2 (stereo not drawn)
Assayed system: RANTES/MIP-1α chemokine receptor (CCR1) in THP-1 cell membranes (Homo sapiens)
IC50: < 1000 nM

Molecule: CCN(c1ccc(Cl)cc1)C1CCN(CCC=C2c3cc(C(C)(C)O)ccc3OCc3ncccc32)CC1
Assayed system: RANTES/MIP-1α chemokine receptor (CCR1) in THP-1 cell membranes (Homo sapiens)
IC50: < 10000 nM

Molecule: CN1C(=O)c2ccccc2C(=CCCN2CCC(O)(c3ccc(Cl)cc3)CC2)c2ccccc21
Assayed system: RANTES/MIP-1α chemokine receptor (CCR1) in THP-1 cell membranes (Homo sapiens)
IC50: < 1000 nM

Molecule: COC1(c2ccc(Cl)cc2)CCN(CCC=C2c3ccccc3COc3ccccc32)CC1
Assayed system: RANTES/MIP-1α chemokine receptor (CCR1) in THP-1 cell membranes (Homo sapiens)
IC50: < 1000 nM

Molecule: OC1(c2ccc(Cl)cc2)CCN(CCC=C2c3ccccc3CSc3ccccc32)CC1
Assayed system: RANTES/MIP-1α chemokine receptor (CCR1) in THP-1 cell membranes (Homo sapiens)
IC50: < 1000 nM

Molecule: CC(C)(O)c1ccc2c(c1)C(=CCCN1CC[C@H](OCc3ccc(Cl)cc3)C1)c1cccnc1CO2
Assayed system: RANTES/MIP-1α chemokine receptor (CCR1) in THP-1 cell membranes (Homo sapiens)
IC50: < 20000 nM

Cited source: patent US8653096B2
